Value source: patent US20240084003A1

tested.system: T1, monkey CD22 protein (ACROBiosystems, catalog number SI2-R52Ha) (monkey, UniProt F6W485 20-688)
T1 construct: commercial protein; also called monkey CD22-ECD; monkey CD22-ECD-His
T1 sequence: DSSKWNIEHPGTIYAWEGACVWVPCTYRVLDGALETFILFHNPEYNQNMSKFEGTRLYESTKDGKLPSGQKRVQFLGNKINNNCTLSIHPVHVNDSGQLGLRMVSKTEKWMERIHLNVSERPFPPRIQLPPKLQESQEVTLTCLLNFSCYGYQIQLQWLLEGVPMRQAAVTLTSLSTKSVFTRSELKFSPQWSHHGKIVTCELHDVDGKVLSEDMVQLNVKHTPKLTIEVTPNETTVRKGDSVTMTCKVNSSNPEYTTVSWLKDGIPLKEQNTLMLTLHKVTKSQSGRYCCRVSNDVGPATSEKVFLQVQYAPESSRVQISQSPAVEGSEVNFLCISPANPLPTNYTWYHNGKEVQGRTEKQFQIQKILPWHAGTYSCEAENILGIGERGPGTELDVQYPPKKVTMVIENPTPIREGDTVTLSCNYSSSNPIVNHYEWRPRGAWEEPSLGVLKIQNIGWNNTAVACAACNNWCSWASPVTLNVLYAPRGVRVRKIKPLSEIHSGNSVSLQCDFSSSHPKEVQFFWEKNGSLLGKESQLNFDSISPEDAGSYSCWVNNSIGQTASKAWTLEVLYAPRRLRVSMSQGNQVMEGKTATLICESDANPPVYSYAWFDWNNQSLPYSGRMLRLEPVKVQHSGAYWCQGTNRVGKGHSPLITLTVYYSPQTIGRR
assay.info: ELISA, coated monkey CD22 protein, antibody 10 nM
Below is a list of entries, each paired with its recorded OD450 value.

>  <binder>
F2.99.1 (antibody, human IgG1, lambda, V domains shown, human-murine chimeric IgG1 lambda; VL name legible) VH: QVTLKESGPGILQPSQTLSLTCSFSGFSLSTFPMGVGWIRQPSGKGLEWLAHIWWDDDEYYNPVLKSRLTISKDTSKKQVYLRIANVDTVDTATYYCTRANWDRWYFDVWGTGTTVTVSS VL: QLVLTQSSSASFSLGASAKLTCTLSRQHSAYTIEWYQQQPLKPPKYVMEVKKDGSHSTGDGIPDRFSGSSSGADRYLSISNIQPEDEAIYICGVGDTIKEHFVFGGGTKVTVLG

>  <OD450 (OD450)>
1.03

$$$$
>  <binder>
F1.62.10 (antibody, human IgG1, kappa, V domains shown, human-murine chimeric IgG1 kappa) VH: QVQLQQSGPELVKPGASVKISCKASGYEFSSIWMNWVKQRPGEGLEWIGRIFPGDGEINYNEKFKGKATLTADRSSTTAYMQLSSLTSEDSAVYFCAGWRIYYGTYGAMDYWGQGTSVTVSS VL: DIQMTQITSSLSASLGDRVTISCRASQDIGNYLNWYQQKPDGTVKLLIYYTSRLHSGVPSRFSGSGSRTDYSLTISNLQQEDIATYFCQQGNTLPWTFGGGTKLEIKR

>  <OD450 (OD450)>
0.18

$$$$
>  <binder>
F1.172.13 (antibody, human IgG1, kappa, V domains shown, human-murine chimeric IgG1 kappa) VH: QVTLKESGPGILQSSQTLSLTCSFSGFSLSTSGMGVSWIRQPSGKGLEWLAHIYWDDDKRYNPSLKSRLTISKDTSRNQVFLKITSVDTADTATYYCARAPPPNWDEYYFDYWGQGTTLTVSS VL: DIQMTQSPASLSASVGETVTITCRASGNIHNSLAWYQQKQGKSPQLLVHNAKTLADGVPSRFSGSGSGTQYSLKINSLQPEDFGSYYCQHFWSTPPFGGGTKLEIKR

>  <OD450 (OD450)>
2.93

$$$$
